Test system: MDA-MB-231 cells
Assay: MTT assay for cell killing, breast cancer cell line MDA-MB-231
Format: cell-based
Details: Homo sapiens; MDA-MB-231, MTT, 72h; single experiment 4; read-out: IC50 Exp4
pIC50: −log10 of the molar value.

| compound | pIC50 |
| --- | --- |
| CCCCNC(=S)NCC(c1cccs1)c1c[nH]c2ccccc12 (centres unmarked) | 4.39 |
| CCCNC(=S)NCC(c1cccs1)c1c[nH]c2ccccc12 (centres unmarked) | 4.22 |

----------
Tested on: MDA-MB-231 cells
Assay: MTT assay for cell killing, breast cancer cell line MDA-MB-231
Assay type: cell-based
Conditions: Homo sapiens; MDA-MB-231, MTT, 72h; single experiment 1; read-out: IC50 Exp1
Simple rule here: IC50 less than 40 µM is TRUE, otherwise FALSE.

| compound | class name |
| --- | --- |
| CCCCCCNC(=S)NCC(c1cccs1)c1c[nH]c2ccccc12 (stereo not drawn) [Example 2] | TRUE |
| C=C(C)CNC(=S)NCC(c1cccs1)c1c[nH]c2ccccc12 (stereo not drawn) [Example 5] | FALSE |
| CCNC(=S)NCC(c1cccs1)c1c[nH]c2ccccc12 (stereo not drawn) [Example 7] | FALSE |
| CCCNC(=S)NCC(c1cccs1)c1c[nH]c2ccccc12 (stereo not drawn) [Example 8] | FALSE |
| S=C(NCC1CCCCC1)NCC(c1cccs1)c1c[nH]c2ccccc12 (stereo not drawn) [Example 4] | FALSE |
| CCCCCNC(=S)NCC(c1cccs1)c1c[nH]c2ccccc12 (stereo not drawn) [Example 3] | TRUE |
| CCCCCCCNC(=S)NCC(c1cccs1)c1c[nH]c2ccccc12 (stereo not drawn) [Example 1] | TRUE |
| CNC(=S)NCC(c1cccs1)c1c[nH]c2ccccc12 (stereo not drawn) [Example 6] | FALSE |

----------
Tested on: MDA-MB-231 cells
Assay: MTT assay for cell killing, breast cancer cell line MDA-MB-231
Type: cell-based
Conditions: Homo sapiens; MDA-MB-231, MTT, 72h; single experiment 2; read-out: IC50 Exp2
Listing of entries alongside the reported IC50.

| compound | IC50 (µM) |
| --- | --- |
| CNC(=S)NCC(c1cccs1)c1c[nH]c2ccccc12 (stereo not drawn) [Example 6] | 48 |
| C=C(C)CNC(=S)NCC(c1cccs1)c1c[nH]c2ccccc12 (stereo not drawn) [Example 5] | 45 |
| CCCCNC(=S)NCC(c1cccs1)c1c[nH]c2ccccc12 (stereo not drawn) [Example 9] | 37.3 |

# credit: patent US20190256502A1
